# System: PPARa:RXRa (NR concentration 270 nM, RXRa partner concentration 90 nM)
# ASSAY METHOD TEXT: PBM binding z-score (relative to random genomic background probes); higher = stronger binding; sequences stand for … in GC…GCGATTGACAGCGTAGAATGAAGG
PROPERTY: PBM binding z-score

In [3]: df
Out[3]:
                                chain             property  result
0  TATAAAGGGTCAAAGGCCAGAGTACGAATGTCGA  PBM binding z-score    6.43
1  CCTACTGGGCCAAAAAGTTCATTGATGCCGATAA  PBM binding z-score    1.72
2  GCTGCTAGGTCAACTGATGGTCATCTAAAGCTCG  PBM binding z-score    3.75
3  ACTCGGTGGACAAAGGTCAGAGCTACGCCAGTGA  PBM binding z-score    4.25
4  AATACAGGGTAACTAGGCCAGAGTAGGTACGAAT  PBM binding z-score    2.01
5  CGTCAAAGGTCAGAGAGGTCAGTGAATGCCGAGT  PBM binding z-score    6.13

### Prompt Which PBM binding z-score value belongs to AGAATGAGGTCACCAAAGATCAGGGAAACGCTTG ?
### Response 6.33

### Prompt Can you check CCGAGGAGGTTACGAGGGGGCATTCAGTGCGAAT next?
### Response 4.29

### Prompt Try this sequence too: CGAACAAGGTCATTGACAGGACAGTGAATAGTAA
### Response 5.93

### Prompt Now this one: GCTGCGAGGTCAACTGATGGTCAGCTAAAGCTCG
### Response 6.02

### Prompt Further, for TCGAGTAGGTCACGGGGGCATTCAGGGATGAAGA ?
### Response 6.09

* * *

# Test system: RARg:RXRa (NR concentration 270 nM, RXRa partner concentration 90 nM)
# ASSAY METHOD TEXT: PBM binding z-score (relative to random genomic background probes); higher = stronger binding; sequences stand for … in GC…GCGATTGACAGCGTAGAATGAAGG
PROPERTY: PBM binding z-score
# print the numeric value only

Here are 3 sequences together with their reported answers.
>>> df
                                chain                             target_system  measured_number
0  TGTATGAGGTTAAAGATCAGGGAACGTGGCGTCG  RARg:RXRa (NR concentration 270 nM, RXRa partner concentration 90 nM)             2.79
1  AGAATGGGGTTACCAAAGATCAGGGAAACGCTTG  RARg:RXRa (NR concentration 270 nM, RXRa partner concentration 90 nM)              2.9
2  AGAATGAGGTCATTAAGATCAGGGAATTGCGGTC  RARg:RXRa (NR concentration 270 nM, RXRa partner concentration 90 nM)             5.83

### Prompt GET /values?readout=PBM binding z-score&system=RARg:RXRa (NR concentration 270 nM, RXRa partner concentration 90 nM)&item= AGTCAAAGTTCATCTAGGTAACATAAGATATGCT
### Response 5.69

### Prompt Repeat for the following sequence: AGTCAAAGTTGAGGACGAGGTAACGTAAAGCACG
### Response 1.38

### Prompt Next up: CTATGTAGGTCAAGGGGGTCATTCAGTTTGAAAG
### Response 7.26

### Prompt Now the same for TCTAGTTGGTCTAAGGTCACACACTCGAAATGCG
### Response 4.63

### Prompt CTACCAAGGTCAACAAGGTCGTTGATTACTATTC ?
### Response 6.87

* * *

# Tested on: THRa:RXRa (NR concentration 90 nM, RXRa partner concentration 90 nM)
# ASSAY METHOD TEXT: PBM binding z-score (relative to random genomic background probes); higher = stronger binding; sequences stand for … in GC…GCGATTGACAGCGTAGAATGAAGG
PROPERTY: PBM binding z-score
Give the figure by itself; no unit, no explanation.

Example sequences with recorded PBM binding z-score:
>>> df
                                chain                             target_system  measured_number
0  TGAATGAGGTTAAATATCAGGGAACGTGGCGTCG  THRa:RXRa (NR concentration 90 nM, RXRa partner concentration 90 nM)             2.38
1  GCTTAGGGGTCAAAGGTTATAGCATGAATAGAAT  THRa:RXRa (NR concentration 90 nM, RXRa partner concentration 90 nM)             4.68
2  ATCGAAAGGTCGACCAGGTGAGTATACACCGTTT  THRa:RXRa (NR concentration 90 nM, RXRa partner concentration 90 nM)             3.34
3  TCTCGGAGGAAACGAAAGGTCAGAGCTCGACATC  THRa:RXRa (NR concentration 90 nM, RXRa partner concentration 90 nM)             2.59
4  CACACTAGGTCACAGAGGTCAAAGTCCGTGCGTA  THRa:RXRa (NR concentration 90 nM, RXRa partner concentration 90 nM)             4.84

### Prompt # lookup: PBM binding z-score of CGAACTAGGTCAAAGGACATTGAAAGGCGACGTA
### Response 2.82

### Prompt Next sequence: AGTCAAAGTTCAGGACGACGTAACGTAAAGCACG
### Response 2.02

### Prompt Now try CGTCAAAGGTCAAGGTAACGTAACAGAAAGCAGC .
### Response 4.25

### Prompt Repeat with TGTCAAAGGTCAAAGGTAACGTAAGTATCCACAC
### Response 4.47

### Prompt Now this one: CCTACTGGACCAAGGTCATTGATCAGTCAAAGCA
### Response 3.43

### Prompt Let us now turn to TCTATTAGTTGATTAGGGCAACCGAAACAGCGGA
### Response 0.697

### Prompt Now try CCGAGAAGGTTACGAGGGGGCATTCAGTGCGAAT .
### Response 4.4

* * *

# Test system: THRa homodimer (NR concentration 90 nM)
# ASSAY METHOD TEXT: PBM binding z-score (relative to random genomic background probes); higher = stronger binding; sequences stand for … in GC…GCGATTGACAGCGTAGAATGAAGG
Recorded PBM binding z-score for the following sequences
Give the figure only, with no unit attached.

Answered cases to consult:
>>> print(df.to_string())
                                chain  measured_number
0  GATACAGGGTCAGCTACAGGCCAGAGTATGGAAA            0.162
1  CGAACGAGGTCAAAGGACAGTGAAAGGCGACGTA             1.79
2  CCTTACGGGTCAAGGTTATAGCCCGGGTGGTACG            0.694
3  TCTAGTTGGTCACGGAGGTCCCACACGACGGGTA            0.108
4  CCTACTGGTCCAAGGTCATTGATCAGTCAAAGCA             3.48

// next entry
### Prompt # PBM binding z-score lookup, item CAAACAAGGTCACAGAGGTCAAAGTCCGTGCGTA
### Response 4.36

* * *

# Tested on: RXRa DBDmut IVT, anti-RXR (DBD mutation: RXRa K156A/R161A, NR concentration 90 nM)
# ASSAY METHOD TEXT: PBM binding z-score (relative to random genomic background probes); higher = stronger binding; sequences stand for … in GC…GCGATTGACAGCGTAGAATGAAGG
The threshold is inclusive: PBM binding z-score of exactly 3 counts as Criterion met; values below receive Criterion not met.

Use these answered entries as a reference point.
>>> print(df.to_string())
                                chain  assigned_category
0  CAAACAAGGTCACCGGAAGGTCAAAGTCCGCATG      Criterion met
1  GCTTACAGGTCAAAGGTTATAGCATGAATAGAAT  Criterion not met
2  CAAACGAGGTCAAGGTCAAAGTCGGTTTGTGCCA      Criterion met
3  CCTTACGGGTCACGTGGTTATAGCACGACGAGCG  Criterion not met
4  AGAACGAGGTCACGCTGAGTTGATAGCAGAGTAG      Criterion met
5  CGTCCGAGGTCATAGGAGGTCAGTGAAGACAGAT      Criterion met
6  CGAACTAGGTCAAGGCCAGTGAATCTCCGCACGC  Criterion not met
7  AATACAGGGTCATCGTAGGTCAGAGTACGCACAG      Criterion met
8  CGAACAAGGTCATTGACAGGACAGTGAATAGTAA      Criterion met
9  CCTCGGAGGACAGAAGGTCAAAGCTGTCCGCTTT  Criterion not met

### Prompt Please tell me: is the sequence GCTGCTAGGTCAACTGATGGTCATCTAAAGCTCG at or over 3 in terms of PBM binding z-score?
### Response Criterion not met
